Cited source for all entries: paper PMC7356157

Consider the following substances; for each one, report its MHC (minimum haemolytic concentration).
Test system: human red blood cells (hRBC)
Test: Haemolytic activity (MHC)
Type: cell-based
Details: 5% v/v hRBC in 1X PBS, 200–0.39 µM, 1 h, 37 °C, absorbance 560 nm
No end group written: not given here.

get_value(item= RYRRKKKMKK-NH2 [Peptide 35409-11] , readout=MHC (minimum haemolytic concentration)) returns >200 µM

get_value(item= RKKKMKKALQYIKLLKE-NH2 [Peptide 35409-1] , readout=MHC (minimum haemolytic concentration)) returns >200 µM

get_value(item= KKKMKKALQYIKLLKE-NH2 [Peptide 35409-2] , readout=MHC (minimum haemolytic concentration)) returns >200 µM

get_value(item= RYRRKKKMKKA-NH2 [Peptide 35409-10] , readout=MHC (minimum haemolytic concentration)) returns >200 µM

get_value(item= RKKKMKKALQY-NH2 [Peptide 35409-15] , readout=MHC (minimum haemolytic concentration)) returns 200 µM

* * *

Test system: E. coli ML35 43827
Format: cell-based
Conditions: broth microdilution
No end group written: not given here.
Consider the following substances; for each one, report its MIC E. coli ML35 43827.
Please state the value followed by its unit.

Known value: E. coli ML35 43827 MIC E. coli ML35 43827 of the substance RYRRKKKMKKALQYIKLLKE-NH2 [Peptide 35409, reference compound] equals 25 µM

Known value: E. coli ML35 43827 MIC E. coli ML35 43827 of the substance KMKKALQYIKLLKE-NH2 [Peptide 35409-4] equals 25 µM

Known value: E. coli ML35 43827 MIC E. coli ML35 43827 of the substance KKKMKKALQYIKLLKE-NH2 [Peptide 35409-2] equals 6 µM

Known value: E. coli ML35 43827 MIC E. coli ML35 43827 of the substance RKKKMKKALQYIKLLKE-NH2 [Peptide 35409-1] equals 3 µM

Known value: E. coli ML35 43827 MIC E. coli ML35 43827 of the substance KKMKKALQYIKLLK-NH2 [Peptide 35409-13] equals 25 µM

* * *

Tested on: E. coli 35218 (ampicillin-resistant ATCC 35218 strain)
Format: cell-based
Conditions: broth microdilution
No end group written: not given here.
Consider the following substances; for each one, report its MIC E. coli 35218.

get_value(item= KKKMKKALQYIKLLKE-NH2 [Peptide 35409-2] , readout=MIC E. coli 35218) returns 12.5 µM

get_value(item= KMKKALQYIKLLKE-NH2 [Peptide 35409-4] , readout=MIC E. coli 35218) returns 25 µM

get_value(item= RKKKMKKALQYIKLLKE-NH2 [Peptide 35409-1] , readout=MIC E. coli 35218) returns 6 µM

get_value(item= RYRRKKKMKKALQYIKLLKE-NH2 [Peptide 35409, reference compound] , readout=MIC E. coli 35218) returns 6 µM

get_value(item= KKMKKALQYIKLLK-NH2 [Peptide 35409-13] , readout=MIC E. coli 35218) returns 25 µM

* * *

Test system: human red blood cells (hRBC)
Assay: Haemolytic activity (MHC)
Format: cell-based
Conditions: 5% v/v hRBC in 1X PBS, 200–0.39 µM, 1 h, 37 °C, absorbance 560 nm
No end group written: not given here.
quantity: MHC (minimum haemolytic concentration)

get_value(item= KKMKKALQYIKL-NH2 [Peptide 35409-14] , readout=MHC (minimum haemolytic concentration)) returns 100 µM

get_value(item= MKKALQYIKLLKE-NH2 [Peptide 35409-5] , readout=MHC (minimum haemolytic concentration)) returns >200 µM

get_value(item= KKMKKALQYIKLLK-NH2 [Peptide 35409-13] , readout=MHC (minimum haemolytic concentration)) returns >200 µM

get_value(item= KKMKKALQYIKLLKE-NH2 [Peptide 35409-3] , readout=MHC (minimum haemolytic concentration)) returns >200 µM

get_value(item= ALQYIKLLKE-NH2 [Peptide 35409-6] , readout=MHC (minimum haemolytic concentration)) returns >200 µM

get_value(item= RYRRKKKMKKALQYIKLLKE-NH2 [Peptide 35409, reference compound] , readout=MHC (minimum haemolytic concentration)) returns 1.56 µM

get_value(item= RYRRKKKMKKALQY-NH2 [Peptide 35409-9] , readout=MHC (minimum haemolytic concentration)) returns >200 µM

get_value(item= KMKKALQYIKLLKE-NH2 [Peptide 35409-4] , readout=MHC (minimum haemolytic concentration)) returns >200 µM

get_value(item= RYRRKKK-NH2 [Peptide 35409-12] , readout=MHC (minimum haemolytic concentration)) returns >200 µM

get_value(item= KMKKALQY-NH2 [Peptide 35409-16] , readout=MHC (minimum haemolytic concentration)) returns >200 µM

get_value(item= YIKLLKE-NH2 [Peptide 35409-7] , readout=MHC (minimum haemolytic concentration)) returns >200 µM

get_value(item= RYRRKKKMKKALQYIKL-NH2 [Peptide 35409-8] , readout=MHC (minimum haemolytic concentration)) returns >200 µM

* * *

Test system: E. coli 25922
Assay: Antibacterial activity in the presence of human sera
Format: cell-based
Conditions: peptide diluted in fresh human sera (100%), then inoculum in MHB ~5 × 10^5 CFU/mL, 18 h, 37 °C
No end group written: not given here.
quantity: MIC against E. coli 25922, Serum (without Pre-Incubation) (µM)
Respond with the bare value in µM.

get_value(item= KKMKKALQYIKLLK-NH2 [Peptide 35409-13] , readout=MIC against E. coli 25922, Serum (without Pre-Incubation)) returns 50

get_value(item= KMKKALQYIKLLKE-NH2 [Peptide 35409-4] , readout=MIC against E. coli 25922, Serum (without Pre-Incubation)) returns 100

get_value(item= RKKKMKKALQYIKLLKE-NH2 [Peptide 35409-1] , readout=MIC against E. coli 25922, Serum (without Pre-Incubation)) returns 12.5

get_value(item= KKKMKKALQYIKLLKE-NH2 [Peptide 35409-2] , readout=MIC against E. coli 25922, Serum (without Pre-Incubation)) returns 25

get_value(item= RYRRKKKMKKALQYIKLLKE-NH2 [Peptide 35409, reference compound] , readout=MIC against E. coli 25922, Serum (without Pre-Incubation)) returns 25
